# SUBJECT OF TEST: stabilized BG505 SOSIP construct MD39 (HIV isolate BG505)
# TEST PROTOCOL: competition ELISA on MD39 vs PGT128
MEASUREMENT LABEL: competition value
Field format: numeric only.

NC-Cow5 (antibody) VH: QVQLQESGPSLVKPSQTLSLTCMVSGFSLNDKAVGWVRQAPGKALEWLGSIDAGGSTGYNPGLKSRLSISKDNSKNQVSLSVSSVTTEDSATYYCGTVHQRTQPKQTCPNGYSDDSALRYYSRCSDRDCWRCTGTTYYDTCQCSSYTYIHTYELYVDAWGQGLLVTVSS VL: QDVLTQPSSVSGSLGQRVSITCSGSSSNVGNGYVSWYQLIPGSAPRTLIYGDTSRASGVPDRFSGSRSGNTATLTISSLQAEDEADYFCASPEDSSSNAVFGSGTTLTVL | 71

Please report the recorded competition value for NC-Cow2 (antibody) VH: KVQLRESGPSLVKPSQTLSLTCMVSGSSLSDKAVGWVRQAPGKALEWLGIISAGGNRGYNSGLRSRLTISKDNSKNEVSLRVRSVTTEDSATYFCGTVHQKTQRKPICPDGYSDDSTLRYYSRCSDRDCWRCTGTTYYDTCQCGTYTWIDTHELHVDAWGQGLLVTVSS VL: QAVLNQPSSVSGSLGQRVSITCSGSSSNVGNGYVSWYQLIPGSAPRTLIYGDTSRASGVPDRFSGSRSGNTATLTISSLQAEDEADYFCASAEDSSSNAVFGSGTTLTVL .
57

Please report the recorded competition value for NC-Cow4 (antibody) VH: KVQLRESGPSLVKPSQTLSLTCMVSGFSLNDEAVGWVRQAPGKALEWLGSIDAGGSTGYNPGLKSRLSISKDNSKNQVSLSVSSVTTEDSATYYCGTVHQRTQPKQTCPNGYSDDSALRYYSRCSDRDCWRCTGTTYYDTCQCSSYTYIHTYELYVDAWGQGLLVTVSS VL: QAVLTQPSSVSGSLGQRVSITCSGSSSNVGNGYVSWYQLIPGSAPRTLIYGDTSRASGVPDRFSGSRSGNTATLTISSLQAEDEADYFCASPEDSSSNAVFGSGTTLTVL .
35

Please report the recorded competition value for NC-Cow7 (antibody) VH: KVQLRESGPSLVKPFETLSLTCTGSGFSLSDKAAGWVRQAPGKAPEWLGSIDTGGNTGYNPGLKYRLSITKDNSKSQVSLSVSSMTSEDSATYYCTTVHQKAYKKVCPDDYSSNPDCVRLYGWSHCDCMRDSFGGWCRADGCSSTVEIGPYEWYVNAWGQGLLVTVSS VL: QAVLTQPSSVSGSLGQRVSITCSGSSSNVGNGYVSWYQLIPGSAPRSLIYGDTSRASGVPDRFSGSRSGNTATLTISSLQAEDEADYFCASPEDSSSNGVFGSGTTLTVL .
31
